Just for reference, patent US20180334496A1 is where these values come from.

Listing: log10(Kd) of selected binders
# target.or.test.system: T1, human Complement Factor D (CFD), purified from human serum (human, UniProt P00746 26-253)
# T1 construct: serum purified (CompTech A136); also called serum purified CFD; hCFD-Comptech
# T1 sequence (P00746 26-253): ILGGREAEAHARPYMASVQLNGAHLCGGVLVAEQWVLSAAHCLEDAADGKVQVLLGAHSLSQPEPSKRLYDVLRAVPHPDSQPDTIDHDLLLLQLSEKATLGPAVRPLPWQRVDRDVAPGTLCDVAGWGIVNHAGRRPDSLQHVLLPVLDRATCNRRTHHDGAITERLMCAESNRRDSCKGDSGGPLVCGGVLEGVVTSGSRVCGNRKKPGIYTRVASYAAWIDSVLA
# assay.remarks: SPR MX96, mAbs amine-coupled, CFD injected
recorded.endpoint: log10(Kd) (log10 of the value in nM)

1) KCD135 (antibody, V domains shown) VH: EVQLQQSGPELVKPGASVRMSCKASGYIFTDYSIHWVKQSHGKSLEWIGYINPNNGGTSYNQKFKGKATLTVNKSSTTAYMELRSLTSEDSAVYFCARDTTIVGDYWGQGTTLTVSS VL: DIVMTQSQKFMSTSVGDRVSVTCKASQHVGTNVVWYQQKPGQSPKALIYSASYRYSGVPDRFSGSGSGTDFTLTISNVQSEDLAEYFCQQFNSYPLTFGGGTKLEIK
1.33
2) KCD212 (antibody, V domains shown) VH: EVHLVESGGDLVKPGGSLKLSCAASGFTFSRYGMSWVRQTPDKRLEWVATISSAGSYTYYPDSVKGRFTISRDNAKNTLFLQMSSLKSEDTAMYYCARPLNYYGTSSFDYWGQGTTLTVSS VL: QIVLTQSPAIMSASPGEKVTMTCRASSSVSSTYLHWYQQKPGSSPKLWIYSTSNLASGVPPRFSGSGSGTSYSLTISSVEAEDAATYYCQQYDSSPNTFGAGTKLELK
-0.33
3) KCD123 (antibody, V domains shown) VH: EVHLQQSGPELVKPGASVKISCKASGYTFTDFYKNWMRQRHGESLEWIGDINPNNGGTNYNQKFKGKATLTVDKSSSTAYMELRSLTSEDSAVYYCAREGPSFAYWGQGTLVTVSA VL: DVLMTQTPLSLPVSLGDQASISCRSSQTIVHSNGDTYLEWYLQKPGQSPNLLIYKVSNRFSGVPDRFSGSGSGTDFTLKISRVEAEDLGVYYCFQGSHVPPTFGGGTKLEIK
0.44
4) KCD047 (antibody, V domains shown) VH: EVQLQQSGAEFVKPGASVRLSCTASGFNIKDTYMHWVKQRPEQGLEWIGRIDPANGYTKDDPKFQGKATITADTSSNTAYLQLSSLTSEDTAVYYCASAMDYWGQGTSVTVSS VL: QIVLTQSPAVMSASPGEKVAMTCSASSSVTYMYWYQQKPGSSPRLLIYDTSNLASGVPVRFSGSGSGTSYSLTISRMEAEDAATYYCQQWSTYPFPFGSGTKLEIK
0.64
5) KCD040 (antibody, V domains shown) VH: EVQLQQSGAELVKPGASVKLSCTASDFNIKDTYMHWVMQRPEQGLEWIGKIDPANGNTEFDPKFQGKATITADTSSNTAYLQLTSLTSEDTAVYYCTRAMDYWGQGTSVTVSS VL: QIVLTQSPAIMSASPGEKVTMTCSAGSSVSYMYWYQQKPGSSPRVLIYDTSNLASGVPVRFSGSGSGTSYSLTISRMEAEDAATYYCQQWSNYPYTFGGGTKLEIK
0.29
6) KCD023 (antibody, V domains shown) VH: EVLLQQSGPELVKPGASVKIPCKASGYTFTDYNIDWVKQSHGKSLEWIGDINPNNGGINYNQKFKGKATLTVDKSSSTAYMELRSLTSEDTAVYYCGTGDYAYWGQGTLVTVSA VL: QIVLTQSPAFMSASPGEKVTLTCSASSSVSSSYLYWYQQKPGSSPKLWIYSTSNLASGVPGRFSGSGSGTSYSLTISSMEAEDAASYFCHQWTSYPPTFGAGTKLELK
0.72
7) KCD118 (antibody, V domains shown) VH: EVQLQQSGPELVKPGASVKISCKAFGYTFTDYYKNWMRQRHGESLEWIGDINPNSGDANYNQKFKGKATLTVDKSSSTAYMELRSLTSEDSAVYYCAREGPSFAYWGHGTLVTVSA VL: DVLMTQTPLSLPVSLGDQASISCRSSQTIVHSNGDTYLEWYLQKPGQSPNLLIYKVSNRFSGVPDRFSGSGSGTDFTLKISRVEAEDLGIYYCFQGSHVPPTFGGGTKLEIK
-0.12
8) KCD230 (antibody, V domains shown) VH: QVQLQQPGTELVKPGASVKLPCKASGYTFTSYWMQWVKQRPGQGLEWIGEIDPSDTYINYNQKFKGKATLTVDTSSTTAYMQLSSLTSEDSAVYYCARYTTIMASDYWGQGTTLTVSS VL: DIQMTQTTSSLSVSLGDRVTISCRASQDITNYLNWYQQKPDGTVKLLIYFTSRLHSGVPSRFSGSGSGTDYSLTISNLEPEDIATYYCQQYSKLPWTFGGGTKLEIK
0.39
9) KCD057 (antibody, V domains shown) VH: EVKLVESGGGLVQPGGSLKLSCAASGFTFSNYIMSWVRQTPEKRLEWVAYITNGGGATYYPDTVKGQFTISRDNAKNTLYLQMSSLKSEDTAIYYCARHDFYALDFWGQGTSVTVSS VL: DIQMTQSPSSLSASLGGKVTITCKASQDINKYIAWYQHKPGKGPRLLIHYTSTLQPGIPSRFSGSGSGRDYSFSISNLEPEDIATYYCLKYDNLLYTFGGGTKLEIK
0.43
10) KCD070 (antibody, V domains shown) VH: EIQLQQTGPELVKPGASVKISCKASGYSFTDYIILWVKQSHGKSLEWIGNINPYYDYTSYNLKFKGKATLTVDKSSSTAYMQLNSLTSEDSAVYYCARSDGYYGGDYWGQGTSVTVSS VL: DIVMTQSHKFMSTSVGDRVSITCKASQDVGTAVAWYQQKPGQSPKLLIYWASTRHTGVPDRFTGSGSGTDFTLTINNVQSEDLADYFCQQYSSYPWTFGGGTTLEIK
0.58
